Experiment: Oral bioavailability in Wistar Han rat at 2 mg/kg
Format: ADME, organism-based
Settings: in vivo

structure string | bioavailability
CC1=C(N2CCC3(CCN(C[C@H](O)c4ccc5c(c4C)COC5=O)CC3)C2=O)COC1=O | 53%

----------
Assay: Volume of distribution at steady state in rhesus monkey at 2 mg/kg, po or 1 mg/kg, iv
Assay type: ADME, organism-based, Macaca mulatta
Conditions: in vivo, read-out: Vdss
measurement kind: Vd

structure string | val
CC1=C(N2CCC3(CCN(C[C@H](O)c4ccc5c(c4C)COC5=O)CC3)C2=O)COC1=O | 7.9 L/kg

----------
Biological target: Voltage-dependent L-type calcium channel subunit alpha-1C (Homo sapiens, UniProt Q13936)
Sequence (Q13936 whole entry): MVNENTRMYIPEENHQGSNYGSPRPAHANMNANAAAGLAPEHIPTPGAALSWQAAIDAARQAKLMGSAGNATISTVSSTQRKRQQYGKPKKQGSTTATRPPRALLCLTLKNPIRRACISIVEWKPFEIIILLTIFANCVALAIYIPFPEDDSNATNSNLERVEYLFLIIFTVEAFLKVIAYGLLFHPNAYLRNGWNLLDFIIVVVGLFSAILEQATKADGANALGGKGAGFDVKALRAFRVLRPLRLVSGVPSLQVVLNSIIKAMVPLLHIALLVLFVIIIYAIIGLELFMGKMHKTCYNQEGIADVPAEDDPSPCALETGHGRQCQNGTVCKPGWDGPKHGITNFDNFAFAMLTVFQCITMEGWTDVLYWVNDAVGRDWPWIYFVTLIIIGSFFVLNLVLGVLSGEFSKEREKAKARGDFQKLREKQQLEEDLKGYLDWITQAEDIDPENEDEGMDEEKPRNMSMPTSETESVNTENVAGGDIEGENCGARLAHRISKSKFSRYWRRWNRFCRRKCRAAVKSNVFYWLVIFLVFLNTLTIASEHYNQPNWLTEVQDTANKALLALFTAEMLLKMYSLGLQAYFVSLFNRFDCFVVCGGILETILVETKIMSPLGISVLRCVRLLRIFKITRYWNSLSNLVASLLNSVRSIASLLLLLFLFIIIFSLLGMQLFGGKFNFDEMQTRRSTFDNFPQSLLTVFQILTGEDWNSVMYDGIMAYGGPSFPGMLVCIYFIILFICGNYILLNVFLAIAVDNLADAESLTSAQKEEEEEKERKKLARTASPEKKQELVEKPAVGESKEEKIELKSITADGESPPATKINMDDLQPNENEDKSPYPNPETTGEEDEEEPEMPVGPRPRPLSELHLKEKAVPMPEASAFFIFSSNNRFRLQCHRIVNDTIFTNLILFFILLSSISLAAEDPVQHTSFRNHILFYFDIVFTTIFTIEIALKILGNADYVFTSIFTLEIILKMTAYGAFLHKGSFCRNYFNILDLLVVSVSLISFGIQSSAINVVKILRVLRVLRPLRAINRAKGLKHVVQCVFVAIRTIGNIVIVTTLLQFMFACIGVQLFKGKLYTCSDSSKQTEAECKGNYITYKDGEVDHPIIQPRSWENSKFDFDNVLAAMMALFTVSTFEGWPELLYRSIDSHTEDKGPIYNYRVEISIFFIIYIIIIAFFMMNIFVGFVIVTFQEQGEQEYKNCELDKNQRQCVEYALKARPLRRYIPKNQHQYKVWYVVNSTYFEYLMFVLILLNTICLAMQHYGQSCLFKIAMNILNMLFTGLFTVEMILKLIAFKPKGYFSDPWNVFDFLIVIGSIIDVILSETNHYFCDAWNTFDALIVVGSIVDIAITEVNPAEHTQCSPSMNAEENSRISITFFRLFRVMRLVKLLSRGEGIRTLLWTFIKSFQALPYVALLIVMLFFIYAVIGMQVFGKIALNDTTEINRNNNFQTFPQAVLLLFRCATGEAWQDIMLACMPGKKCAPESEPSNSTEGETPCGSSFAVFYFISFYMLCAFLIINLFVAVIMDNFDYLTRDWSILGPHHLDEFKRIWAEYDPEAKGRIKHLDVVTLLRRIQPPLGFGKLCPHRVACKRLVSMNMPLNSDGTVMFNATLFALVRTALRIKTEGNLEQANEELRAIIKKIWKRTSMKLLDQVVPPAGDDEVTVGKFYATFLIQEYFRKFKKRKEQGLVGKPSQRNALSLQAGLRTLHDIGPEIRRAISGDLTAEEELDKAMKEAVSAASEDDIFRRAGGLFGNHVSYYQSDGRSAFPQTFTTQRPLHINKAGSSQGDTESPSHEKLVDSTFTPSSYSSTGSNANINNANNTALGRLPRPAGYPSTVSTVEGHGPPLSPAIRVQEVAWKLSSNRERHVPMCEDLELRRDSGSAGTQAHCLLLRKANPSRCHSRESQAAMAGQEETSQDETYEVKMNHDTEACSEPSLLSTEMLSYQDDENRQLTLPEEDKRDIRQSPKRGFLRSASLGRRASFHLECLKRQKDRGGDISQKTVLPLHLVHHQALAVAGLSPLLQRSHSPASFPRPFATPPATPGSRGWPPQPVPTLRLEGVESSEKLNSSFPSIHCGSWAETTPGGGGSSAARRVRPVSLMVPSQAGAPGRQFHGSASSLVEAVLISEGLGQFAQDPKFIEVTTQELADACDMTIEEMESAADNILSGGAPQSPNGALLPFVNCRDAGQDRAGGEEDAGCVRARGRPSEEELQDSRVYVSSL
Assay: Inhibition of Cav1.2 (unknown origin)

structure string | IC50
CC1=C(N2CCC3(CCN(C[C@H](O)c4ccc5c(c4C)COC5=O)CC3)C2=O)COC1=O | > 30 µM
